Value source: ChEMBL document CHEMBL1125365

- ASSAY TARGET: Sterol O-acyltransferase 1 (Rattus norvegicus)
- Sequence (O70536 whole entry): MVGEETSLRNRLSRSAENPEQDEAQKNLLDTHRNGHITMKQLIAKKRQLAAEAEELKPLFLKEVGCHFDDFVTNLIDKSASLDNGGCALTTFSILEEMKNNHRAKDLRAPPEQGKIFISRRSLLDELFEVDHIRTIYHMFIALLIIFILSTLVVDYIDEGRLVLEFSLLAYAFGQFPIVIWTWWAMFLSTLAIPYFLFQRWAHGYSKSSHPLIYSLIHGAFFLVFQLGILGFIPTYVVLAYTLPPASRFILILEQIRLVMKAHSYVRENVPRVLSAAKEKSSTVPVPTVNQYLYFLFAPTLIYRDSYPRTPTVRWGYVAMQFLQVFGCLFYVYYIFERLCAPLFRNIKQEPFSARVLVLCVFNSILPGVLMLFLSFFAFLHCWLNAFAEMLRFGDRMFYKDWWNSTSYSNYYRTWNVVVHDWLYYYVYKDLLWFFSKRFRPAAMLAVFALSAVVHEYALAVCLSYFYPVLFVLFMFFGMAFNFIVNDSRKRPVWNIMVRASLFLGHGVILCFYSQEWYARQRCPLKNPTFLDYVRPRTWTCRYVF
MEASURED QUANTITY: IC50
I'd appreciate it if you included the unit after the number.

>>> result("c1ccc(CSc2nc(-c3ccccc3)c(-c3ccccc3)[nH]2)cc1")
"290 nM"
>>> result("C[C@@]1(O)CC(=O)OC(CSc2nc(-c3ccccc3Cl)c(-c3ccccc3Cl)[nH]2)C1 (some centres undefined)")
"140 nM"
>>> result("CCOC(=O)CC(C)(O)CC(O)CSc1nc(-c2ccccc2)c(-c2ccccc2)[nH]1 (centres undefined)")
"280 nM"
>>> result("CCOC(CCSc1nc(-c2ccccc2)c(-c2ccccc2)[nH]1)OCC")
"69 nM"
>>> result("CCOC(CSc1nc(-c2ccccc2)c(-c2ccccc2)[nH]1)OCC")
"250 nM"

Please look at the items below and tell me IC50 for each one, in order.
1. CO[C@H]1C[C@H](O)C[C@@H](CSc2nc(-c3ccccc3)c(-c3ccccc3)[nH]2)O1
2. c1ccc(-c2nc(SCC3CCCCO3)[nH]c2-c2ccccc2)cc1 (centres undefined)
3. C[C@@]1(O)CC(O)O[C@@H](CSc2nc(-c3ccccc3)c(-c3ccccc3)[nH]2)C1 (some centres undefined)
4. c1ccc(-c2nc(SCC3OCCCO3)[nH]c2-c2ccccc2)cc1
5. Cc1ccc(-c2nc(SC[C@H]3C[C@@](C)(O)CC(=O)O3)[nH]c2-c2ccc(C)cc2)cc1.Cc1ccc(-c2nc(SC[C@H]3C[C@](C)(O)CC(=O)O3)[nH]c2-c2ccc(C)cc2)cc1

**Result**
["90 nM", "210 nM", "160 nM", "180 nM", "170 nM"]
